Ref: patent US20070276034A1

Would you kindly list inhibition for each of these molecules?
- assayed.target: Aβ 1-42 fibrils (Homo sapiens)
- Construct: purchased Bachem Inc
- measurement.protocol: Thioflavin T fluorometry - disruption of pre-formed Aβ 1-42 Alzheimer's fibrils
- Type: biochemical
- measurement.parameters: Aβ:test compound wt/wt ratio 1:0.001; 25 μM pre-fibrillized Aβ 1-42, 37° C., 3 days; read-out: % Inhibition Aβ (result ± S.D.)
One number for each entry, in %.

List inhibition for every entry below, keeping the order given.
1. O=C(c1ccc(O)c(O)c1)N1CCN(C(=O)c2ccc(O)c(O)c2)CC1 [Compound 23, 1,4-bis(3,4-dihydroxybenzoyl)piperazine]
2. Oc1ccc(CN(Cc2ccc(O)c(O)c2)Cc2ccc(O)c(O)c2)cc1O [Compound 75, tris(3,4-dihydroxybenzyl)amine]
3. O=C(CCc1ccc(O)c(O)c1)Nc1ccc(O)c(O)c1
4. O=C(NCc1ccc(O)c(O)c1)c1ccc(O)c(O)c1
5. O=C(Nc1ccc(O)c(O)c1)C(=O)Nc1ccc(O)c(O)c1 [Compound 63, oxalic acid bis(3,4-dihydroxyanilide)]
6. Cc1nc(-c2ccc(O)c(O)c2)cc(-c2ccc(O)c(O)c2)c1C#N
7. O=C(C=Cc1ccc(O)c(O)c1)NCc1ccc(O)c(O)c1

[0, 17, 17.7, 0, 1.6, 4.9, 26]

Hi, could you look up inhibition for each item in my list?
1. Oc1ccc(CN2CCN(Cc3ccc(O)c(O)c3)CC2)cc1O [Compound 9, 1,4-bis(3,4-dihydroxybenzyl)piperazine]
2. O=C(Nc1ccc(O)c(O)c1)Nc1ccc(O)c(O)c1 [Compound 76, 1,3-bis(3,4-dihydroxyphenyl)urea]

1: 10.6; 2: 12.2

Kindly give each listed record's inhibition.
1. Oc1ccc(CNCc2ccc(O)c(O)c2)cc1O [Compound 73, bis(3,4-dihydroxybenzyl)amine]
2. O=C(N[C@@H]1CCCC[C@H]1NC(=O)c1ccc(O)c(O)c1)c1ccc(O)c(O)c1 (relative stereo)
3. O=C(c1ccc(O)c(O)c1)C(O)c1ccc(O)c(O)c1 (stereo not shown) [Compound 1, 3,4,3′,4′-tetrahydroxybenzoin]

0
0
0

Provide the reported inhibition of each entry below, same order.
1. O=C(Nc1ccc(O)c(O)c1)c1ccc(O)c(O)c1
2. O=C(CCC(=O)NCc1ccc(O)c(O)c1)NCc1ccc(O)c(O)c1

[29, 13.7]

The following molecules each have a reported value; give each one's inhibition.
1. O=C(NCc1ccc(O)c(O)c1)C(=Cc1ccc(O)c(O)c1)NC(=O)c1ccc(O)c(O)c1
2. Oc1ccc(CN[C@@H]2CCCC[C@H]2NCc2ccc(O)c(O)c2)cc1O (relative stereo)

[8.9, 0]

* * *

- assayed.target: Aβ 1-42 fibrils (Homo sapiens, UniProt P05067)
- Construct: purchased Bachem Inc
- Sequence (P05067 672-713): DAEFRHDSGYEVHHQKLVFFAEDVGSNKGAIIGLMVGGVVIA
- measurement.protocol: Thioflavin T fluorometry - disruption of pre-formed Aβ 1-42 Alzheimer's fibrils
- Type: biochemical
- measurement.parameters: Aβ:test compound wt/wt ratio 1:0.01; 25 μM pre-fibrillized Aβ 1-42, 37° C., 3 days; read-out: % Inhibition Aβ (result ± S.D.)
Note to self: values exactly at 30% are rule met. So inhibition at or above 30% is rule met, below is rule not met.

> print(dat)
                                   compound  assigned.category
1  O=C(CCC(=O)Nc1ccc(O)c(O)c1)Nc1ccc(O)c(O)c1 [Compound 66, succinic acid bis(3,4-dihydroxyanilide)]           rule met
2  O=C(NCc1ccc(O)c(O)c1)C(=Cc1ccc(O)c(O)c1)NC(=O)c1ccc(O)c(O)c1 [Compound 21]           rule met
3  Oc1ccc(CNCc2ccc(O)c(O)c2)cc1O [Compound 73, bis(3,4-dihydroxybenzyl)amine]       rule not met
4  O=C(CCc1ccc(O)c(O)c1)Nc1ccc(O)c(O)c1 [Compound 57]       rule not met

Determine whether measured inhibition meets or exceeds 30% for O=C(c1ccc(O)c(O)c1)C(O)c1ccc(O)c(O)c1 (centres unmarked) [Compound 1, 3,4,3′,4′-tetrahydroxybenzoin]
rule not met

Given the entry O=C(c1ccc(O)c(O)c1)N1CCN(C(=O)c2ccc(O)c(O)c2)CC1 [Compound 23, 1,4-bis(3,4-dihydroxybenzoyl)piperazine] , answer whether its inhibition meets or surpasses 30%.
rule not met

Does O=C(C=Cc1ccc(O)c(O)c1)NCc1ccc(O)c(O)c1 [Compound 61] have a reported inhibition of at least 30%?
rule not met

In plain terms: is recorded inhibition at least 30% for O=C(Nc1ccc(O)c(O)c1)c1ccc(O)c(O)c1 [Compound 51] ?
rule met
